Provide the reported cell viability (log2) of each item.
- Tested on: A673/TR/shEF
- procedure_summary: cell viability (LOESS-normalised, relative to median of negative controls) (log2 ratio); higher = more viable cells (less compound effect), active = hit call of the paper (over 3 MAD below the median)
- experimental_setup: 25 µM; library screen: screen1; EWS-FLI1 expression: high (no doxycycline); treatment time: 72 h
About 300 (9.4%) of roughly 3,200 compounds showed activity. This excerpt belongs to a sample that is enriched for actives.
Response field accepts a number only; no unit should be typed.

Fill in cell viability (log2) for record N#CC(C#N)=C(N)/C(C#N)=C/c1ccc2[nH]ccc2c1 -0.203

Fill in cell viability (log2) for record N#CC(C#N)=C(N)/C(C#N)=C/c1cc(O)c(O)c(O)c1 -0.175

Fill in cell viability (log2) for record COc1cccc(-c2cc(=O)c3ccccc3o2)c1N -0.0514

Fill in cell viability (log2) for record Nc1ncnc2c1c(I)cn2[C@@H]1O[C@H](CO)[C@@H](O)[C@H]1O -2.42

Fill in cell viability (log2) for record O=c1cc(N2CCOCC2)oc2c(-c3ccccc3)cccc12 -0.489

Fill in cell viability (log2) for record Cc1ccc(S(=O)(=O)/C=C/C#N)cc1 -3.58

Fill in cell viability (log2) for record Cn1cnc2c(NCc3ccccc3)nc(NCCO)nc21 0.00929

Fill in cell viability (log2) for record CNCCNS(=O)(=O)c1cccc2cnccc12 -0.0615

Fill in cell viability (log2) for record NCCNS(=O)(=O)c1cccc2cnccc12 -0.0355

Fill in cell viability (log2) for record O=S(=O)(c1cccc2c(Cl)cccc12)N1CCCNCC1 -0.331

###

- Test system: A673/TR/shEF
- procedure_summary: cell viability (LOESS-normalised, relative to median of negative controls) (log2 ratio); higher = more viable cells (less compound effect), active = hit call of the paper (over 3 MAD below the median)
- experimental_setup: 25 µM; library screen: screen2; EWS-FLI1 expression: low (doxycycline-induced shRNA knockdown); treatment time: 72 h
The whole screen tested about 3,200 compounds, of which about 300 (9.4%) showed activity. The sample holds actives, similar compounds and a random draw of the others, so the mix is not that of the screen.
The reply should name one outcome from active, inactive

What is the recorded call for this compound in the test? CCc1nc(N)nc(N)c1-c1ccc(Cl)cc1 inactive

What is the recorded call for this compound in the test? Nc1nc(=S)c2[nH]cnc2[nH]1 active

What is the recorded call for this compound in the test? O=c1[nH]cc(F)c(=O)[nH]1 inactive

What is the recorded call for this compound in the test? COC(=O)Nc1nc2ccc(Sc3ccccc3)cc2[nH]1 active

What is the recorded call for this compound in the test? C[n+]1c2cc(N)ccc2cc2ccc(N)cc21 active

What is the recorded call for this compound in the test? Cc1cn([C@H]2C[C@H](N=[N+]=[N-])[C@@H](CO)O2)c(=O)[nH]c1=O inactive

What is the recorded call for this compound in the test? Cn1cnc([N+](=O)[O-])c1Sc1ncnc2nc[nH]c12 inactive

What is the recorded call for this compound in the test? S=c1nc[nH]c2nc[nH]c12 inactive

What is the recorded call for this compound in the test? CCN(CC)CCCC(C)Nc1c2ccc(Cl)cc2nc2ccc(OC)cc12 (centres undefined) active

From: the supplement of paper PMC6089552
